Value source: ChEMBL document CHEMBL1139732

# TESTED_SYSTEM: 5-hydroxytryptamine receptor 2A (Homo sapiens)
# Sequence (P28223 whole entry): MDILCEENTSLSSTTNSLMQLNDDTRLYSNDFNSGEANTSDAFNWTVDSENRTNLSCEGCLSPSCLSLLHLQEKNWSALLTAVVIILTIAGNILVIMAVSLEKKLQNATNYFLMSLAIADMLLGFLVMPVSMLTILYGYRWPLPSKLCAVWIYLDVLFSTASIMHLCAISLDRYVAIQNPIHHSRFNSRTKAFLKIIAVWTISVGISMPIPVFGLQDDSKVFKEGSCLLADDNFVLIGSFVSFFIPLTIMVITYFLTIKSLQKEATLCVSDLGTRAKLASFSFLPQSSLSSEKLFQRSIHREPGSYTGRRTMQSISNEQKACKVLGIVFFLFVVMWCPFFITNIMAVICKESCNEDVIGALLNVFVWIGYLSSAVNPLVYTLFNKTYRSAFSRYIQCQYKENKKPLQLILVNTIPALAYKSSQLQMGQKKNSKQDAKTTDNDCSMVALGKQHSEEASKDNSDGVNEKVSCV
# METHOD_DESCRIPTION: Displacement of [3H]ketanserin from human 5HT2A receptor expressed in CHOK1 cells
MEASURED_PROPERTY: pIC50
Give bare numbers, as −log10 of the molar value.

// input: 3 compounds below; output: pIC50 for each
1. CC(C)(C)NC1=NCCNC(c2ccccc2Cl)=C1
2. CC(C)(C)NC1=NCCNC(c2ccc(F)cc2F)=C1
3. CC(C)(C)CNC1=NCCNC(c2ccccc2F)=C1

[7.12, 7.96, 5.82]

For CCC(CC)(CC)NC1=NCCNC(c2ccc(F)cc2F)=C1 , what is its reported pIC50?
8.43
